The measured values listed here are drawn from patent US10597388B2.

Here the recorded Plant response rating, Soybean is given for each entry.
System: soybean (Glycine max)
Test: Test E greenhouse herbicide test, pre- and postemergence
Type: in vivo
Conditions: 125 g ai/ha, Postemergence; scale 0 to 100 (0 no effect, 100 complete control)
Description: […]
Form field (numeric): enter value without unit.

// below: answered molecules
{"columns": ["structureAsSmiles", "resultValue"],
 "data": [
  ["CC(=O)Oc1c(C)nn(C)c(=O)c1-c1c(C)cc(C)c2ccccc12", 10],
  ["CCOC(=O)Oc1c(C)nn(C)c(=O)c1-c1c(C)sc2c(C)cc(C)cc12", 0],
  ["CCC(=O)Oc1c(C)nn(C)c(=O)c1-c1c(C)sc2ccc(C)cc12", 30]
]}

Below: the item to evaluate.
Inquiry: # return recorded Plant response rating, Soybean for input `CC(=O)Oc1c(C)nn(C)c(=O)c1-c1ccc(F)c2ccccc12`
Reply text: 60

###

System: oat, wild (wild oat, Avena fatua)
Assay: Test D controlled growth environment herbicide test, pre- and postemergence
Format: in vivo
Details: postemergence, 62 g ai/ha; scale 0 to 100, 0 no effect, 100 complete control
// reported Plant response rating, Oat, Wild for each item listed
// keep it numeric: no unit symbol after the value

{"columns": ["structureAsSmiles", "targetOfAssay", "resultValue"],
 "data": [
  ["CC(=O)Oc1c(Br)nn(C)c(=O)c1-c1c(C)ccc2ccccc12", "oat, wild (wild oat, Avena fatua)", 90]
]}

Inquiry: Identify measured Plant response rating, Oat, Wild obtained with oat, wild (wild oat, Avena fatua) for `CCOC(=O)Oc1c(C)nn(C)c(=O)c1-c1c(C)sc2c(C)cc(C)cc12` .
Reply text: 85

Inquiry: Param request: Plant response rating, Oat, Wild | system oat, wild (wild oat, Avena fatua) | item `COc1nn(C)c(=O)c(-c2c(C)ccc3ccccc23)c1OC(=O)OC(C)C`
Reply text: 80

Inquiry: Report value: Plant response rating, Oat, Wild, system: oat, wild (wild oat, Avena fatua), compound: `C#CCOC(=O)Oc1c(C)nn(C)c(=O)c1-c1c(C)sc2ccc(C)cc12`
Reply text: 95

Inquiry: Write down the reported Plant response rating, Oat, Wild (system: oat, wild (wild oat, Avena fatua)) of `CC(=O)Oc1c(C)nn(C)c(=O)c1-c1c(C)cc(C)c2ccccc12`
Reply text: 85

Inquiry: Please report the measured Plant response rating, Oat, Wild for `Cc1ccc2ccccc2c1-c1c(O)c(C)nn(C)c1=O` tested on oat, wild (wild oat, Avena fatua).
Reply text: 90

###

System: nutsedge, yellow (yellow nutsedge, Cyperus esculentus)
Experiment: Test C greenhouse herbicide test, pre- and postemergence
Assay type: in vivo
Conditions: Postemergence, 62 g ai/ha; 0 to 100 scale (0 no effect, 100 complete control)
From the text: […]
# Nutsedge, Yellow plant response rating per entry
Reply with just the number.

{"columns": ["structureAsSmiles", "Nutsedge, Yellow plant response rating"],
 "data": [
  ["CSCC(=O)Oc1c(C)nn(C)c(=O)c1-c1cccc2ccccc12", 75],
  ["COc1nn(C)c(=O)c(-c2c(C)ccc3ccccc23)c1OC(C)=O", 65],
  ["Cc1ccc2ccccc2c1-c1c(OC(=O)N2CCOCC2)c(Br)nn(C)c1=O", 5],
  ["COC(=O)Oc1cnn(C)c(=O)c1-c1c(C)ccc2ccccc12", 40],
  ["CC(=O)Oc1c(C)nn(C)c(=O)c1-c1c(C)cc(C)c2ccccc12", 90]
]}

Please examine the following record next.
Inquiry: Kindly indicate its recorded Nutsedge, Yellow plant response rating. Item: `COC(=O)Oc1c(C)nn(C)c(=O)c1-c1c([N+](=O)[O-])ccc2ccccc12`
Reply text: 25

###

System: morningglory (Ipomoea coccinea)
Experiment: Test C greenhouse herbicide test, pre- and postemergence
Format: in vivo
Conditions: Preemergence, 62 g ai/ha; scale 0 to 100, 0 is no effect, 100 is complete control
Description: […]
Each item that follows carries a reported Plant response rating, Morningglory.
Respond numerically, and do not add a unit to the figure.

Solved cases below.
{"columns": ["structureAsSmiles", "resultValue"],
 "data": [
  ["CC(=O)Oc1c(C)nn(C)c(=O)c1-c1c(C)sc2c(C)cc(C)cc12", 98],
  ["CC(=O)Oc1c(C)nn(C)c(=O)c1-c1c(C)sc2ccc(C)cc12", 95],
  ["CC(=O)Oc1c(C)nn(C)c(=O)c1-c1ccc(F)c2ccccc12", 85]
]}

Inquiry: Give the reported value of Plant response rating, Morningglory for this record: `Cc1sc2ccc(Cl)cc2c1-c1c(OS(C)(=O)=O)c(Cl)nn(C)c1=O`
Reply text: 55

Inquiry: Return Plant response rating, Morningglory for the following compound: `COC(=O)Oc1c(C)nn(C)c(=O)c1-c1c(C)sc2c(C)cc(C)cc12`
Reply text: 85

Inquiry: Assign Plant response rating, Morningglory to the following record: `CCCC(=O)Oc1c(C)nn(C)c(=O)c1-c1c(C)sc2c(C)cc(C)cc12`
Reply text: 90

Inquiry: Tell me measured Plant response rating, Morningglory for `CC(=O)Oc1c(C)nn(C)c(=O)c1-c1c(C)cc(C)c2ccccc12` please.
Reply text: 90

Inquiry: Quote Plant response rating, Morningglory reported for `CCC(=O)Oc1c(C)nn(C)c(=O)c1-c1ccc(Br)c2ccccc12` please.
Reply text: 85

Inquiry: Specify reported Plant response rating, Morningglory for the compound shown: `CC(=O)Oc1c(Br)nn(C)c(=O)c1-c1c(C)ccc2ccccc12`
Reply text: 90

###

System: buckwheat, wild (wild buckwheat, Polygonum convolvulus)
Experiment: Test D controlled growth environment herbicide test, pre- and postemergence
Type: in vivo
Conditions: Postemergence, 31 g ai/ha; scale 0 to 100 (0 no effect, 100 complete control)
Description: […]
Buckwheat, Wild plant response rating overview
Note: the reply should be a number with no unit written.

Reference set (5 entries):
{"columns": ["compound", "targetOfAssay", "measuredMetric", "resultValue"],
 "data": [
  ["COc1nn(C)c(=O)c(-c2c(C)ccc3ccccc23)c1O [Compound 54]", "buckwheat, wild (wild buckwheat, Polygonum convolvulus)", "Buckwheat, Wild plant response rating", 100],
  ["CC(=O)Oc1c(C)nn(C)c(=O)c1-c1ccc(F)c2ccccc12 [Compound 90]", "buckwheat, wild (wild buckwheat, Polygonum convolvulus)", "Buckwheat, Wild plant response rating", 80],
  ["Cc1cc(C)c2sc(C)c(-c3c(OC(=O)OC(C)C)c(C)nn(C)c3=O)c2c1 [Compound 67]", "buckwheat, wild (wild buckwheat, Polygonum convolvulus)", "Buckwheat, Wild plant response rating", 100],
  ["CCC(=O)Oc1c(C)nn(C)c(=O)c1-c1c(C)sc2ccc(Cl)cc12 [Compound 109]", "buckwheat, wild (wild buckwheat, Polygonum convolvulus)", "Buckwheat, Wild plant response rating", 95],
  ["COC(=O)Oc1c(C)nn(C)c(=O)c1-c1c(C)sc2c(C)cc(C)cc12 [Compound 81]", "buckwheat, wild (wild buckwheat, Polygonum convolvulus)", "Buckwheat, Wild plant response rating", 100]
]}

Inquiry: Note down Buckwheat, Wild plant response rating recorded for Cc1nn(C)c(=O)c(-c2c(C)sc3ccc(Cl)cc23)c1O [Compound 104]
Reply text: 90

Inquiry: Specify Buckwheat, Wild plant response rating for CC(=O)Oc1c(C)nn(C)c(=O)c1-c1c(C)cc(C)c2ccccc12 [Compound 153] and stop.
Reply text: 95

###

System: blackgrass (Alopecurus myosuroides)
Assay: Test D controlled growth environment herbicide test, pre- and postemergence
Assay type: in vivo
Conditions: Preemergence, 125 g ai/ha; scale 0 to 100 (0 no effect, 100 complete control)
Listed here are compounds together with their documented Plant response rating, Blackgrass.
Please reply with the number alone, leaving off any unit.

See these solved cases before continuing.
{"columns": ["compound", "Plant response rating, Blackgrass"],
 "data": [
  ["CC(=O)Oc1c(C)nn(C)c(=O)c1-c1ccc(F)c2ccccc12 [Compound 90]", 45],
  ["Cc1cc(C)c2sc(C)c(-c3c(OC(=O)OC(C)C)c(C)nn(C)c3=O)c2c1 [Compound 67]", 75],
  ["CC(=O)Oc1c(Br)nn(C)c(=O)c1-c1c(C)ccc2ccccc12 [Compound 129]", 55]
]}

Inquiry: Read off the recorded Plant response rating, Blackgrass for CCOC(=O)Oc1c(C)nn(C)c(=O)c1-c1c(C)sc2ccc(C)cc12 [Compound 82]
Reply text: 75

Inquiry: Tell me Plant response rating, Blackgrass reported for Cc1cc(C)c2sc(C)c(-c3c(OC(=O)OCCCl)c(C)nn(C)c3=O)c2c1 [Compound 85]
Reply text: 85

Inquiry: Name the recorded Plant response rating, Blackgrass of the compound listed here: CCC(=O)Oc1c(C)nn(C)c(=O)c1-c1c(C)sc2ccc(C)cc12 [Compound 42]
Reply text: 95

###

Below, each of the molecules is paired with its reported Plant response rating, Kochia value.
System: kochia (Kochia scoparia)
Test: Test D controlled growth environment herbicide test, pre- and postemergence
Assay type: in vivo
Details: Postemergence, 125 g ai/ha; visual rating on scale 0 (no effect) to 100 (complete control), 14 to 21 d
Give the figure only, with no unit attached.

Worked set:
{"columns": ["structureAsSmiles", "Plant response rating, Kochia"],
 "data": [
  ["Cc1ccc2sc(C)c(-c3c(O)c(C)nn(C)c3=O)c2c1", 95],
  ["CCC(=O)Oc1c(C)nn(C)c(=O)c1-c1c(C)sc2ccc(Cl)cc12", 100],
  ["CC(=O)Oc1c(C)nn(C)c(=O)c1-c1c(C)cc(C)c2ccccc12", 30],
  ["Cc1ccc2ccc(C)c(-c3c(O)c(C)nn(C)c3=O)c2c1", 90],
  ["Cc1cc(C)c2sc(C)c(-c3c(OC(=O)OCCCl)c(C)nn(C)c3=O)c2c1", 70],
  ["CC(=O)Oc1c(C)nn(C)c(=O)c1-c1c(C)sc2c(C)cc(C)cc12", 55]
]}

Next, consider the following molecule.
Inquiry: Give the reported value of Plant response rating, Kochia for this record: `C#CCOC(=O)Oc1c(C)nn(C)c(=O)c1-c1c(C)sc2ccc(C)cc12`
Reply text: 90
